src = PubChem BioAssay (NCI)

Test system: UACC-257 melanoma
Assay: NCI tumour cell line growth inhibition, 48 h; in the data active means GI50 below about 0.43 µM; inactive means the rest
Response enum: active, inactive

# compound, system, class name
data = [
    ("C[C@H]1[C@@H](OCC(CO[C@H]2O[C@@H]3O[C@@]4(C)CC[C@H]5[C@H](C)CC[C@@H]([C@H]2C)[C@@]35OO4)=NOCC(=O)O)OC2O[C@@]3(C)CC[C@H]4[C@H](C)CC[C@@H]1[C@@]24OO3 (some centres undefined)", "UACC-257 melanoma", "active"),
]

Please turn your attention to the following entry.
What is the recorded call for this compound in the test? COc1ccc2c(c1)OC13Oc4cc(OC)ccc4C=C1CCCC3=C2 inactive

====

Below: a set of entries, each annotated with reported TGI.
System: RXF 393 renal
Assay: NCI tumour cell line growth inhibition, 48 h

These recorded examples may help you get a feel for the data.
# compound, TGI
rows = [
    ("CO[C@H]1O[C@@H]2CO[C@@H](c3ccccc3)O[C@H]2C[C@]12CCC/C=C\\CO2", "28.3 µM"),
    ("C=C1C(C)C2C(Cc3ccccc3)NC(=O)C23C(OC(C)=O)/C=C/C(C)(O)CC(C)C/C=C/C3C1O (configuration not stated)", "2.97 µM"),
    ("C#CCOC(=O)c1ccccc1OC(C)=O", "> 100 µM"),
    ("CCOC(=O)C(C)(C)Oc1ccc2c(-c3ccc(Cl)cc3)cc(=O)oc2c1", "> 100 µM"),
    ("Cc1cc(C)nc(NS(=O)(=O)c2ccc(NC(=O)c3cccc4cc5ccccc5nc34)cc2)n1", "> 100 µM"),
]

Shift focus to the following entry.
Query TGI for CCCCCCCCCC(=O)CC(=O)c1c(O)cccc1O 72.1 µM

====

# TGI listing for each entry below
Tested on: NCI-H522 lung
Experiment: NCI tumour cell line growth inhibition, 48 h
Please state the figure in µM; there is no need to write the unit.

Guide cases for TGI, answers given:
# compound, system, TGI (µM)
data = [
    ("CC(=O)Nc1ccc(-c2nnc(SCC(=O)Nc3ccc(C)cc3)o2)cc1", "NCI-H522 lung", 33),
    ("CC[C@H](C)[C@H](NC(=O)C12C3C4C1C1C2C3C41NC(C)=O)C(=O)N(C)[C@H](C[C@@H](OC(C)=O)c1nc(C(=O)N[C@@H](Cc2ccccc2)C[C@H](C)C(=O)OC)cs1)C(C)C (stereo partly specified)", "NCI-H522 lung", 0.513),
]

Identify measured TGI associated with COc1ccc(C(Nc2ncccn2)c2cc3c(cc2O)OCO3)cc1 (stereo unspecified) 31.7

Input Cn1c(=O)c2[nH]c(COc3ccc(C(C)(C)C)cc3)nc2n(C)c1=O , output reported TGI. 88

Give the measured TGI for COC1=C(OC)CCC(/C(C#N)=C/c2ccc(OC)c(OC)c2)=C1 70.5

Indicate its recorded TGI; the compound in question is COc1ccc(/C=C2\N=C3SC=C(N)N3C2=O)cc1 1.5

Quickly give me recorded TGI for Cc1cc(C)nc(NS(=O)(=O)c2ccc(NC(=O)c3cccc4cc5ccccc5nc34)cc2)n1 54.3

Find the measured TGI of O=C(NNS(=O)(=O)c1cc(C(F)(F)F)cc(C(F)(F)F)c1)c1cnn(-c2ccc(Cl)cc2)c1C(F)(F)F and report it. 43.1

Identify TGI associated with the compound O=C(/C=C/c1ccc(O)c(O)c1)OCCOC(=O)/C=C/c1ccc(O)c(O)c1 46.9

Supply TGI value. Item: COc1ccc(C(O)c2cc3c(N)c(C(=O)Nc4cccc(Br)c4)sc3nc2C)cc1 (stereo unspecified) 1.85
